system: Caspase-3/7 activity in HepG2 cells; assay: Caspase-3/7 activity test; assay type: cell-based, Human; conditions: HepG2, 100 μM, culture for one day, relative to maximum with Staurosporine (100%) and no reagent (0%)
Structures can show the parent of a compound that is named as a salt.

{"compound": "CNCc1cn(S(=O)(=O)c2ccc(C)nc2)c(-c2cccnc2F)c1F", "test_system": "Caspase-3/7 activity in HepG2 cells", "Caspase-3/7 activity (%, 100 μM), %": 2.4}
{"compound": "CNCc1cn(S(=O)(=O)c2ccc(F)cn2)c(-c2cccnc2F)c1F [Example 3, hydrochloride]", "test_system": "Caspase-3/7 activity in HepG2 cells", "Caspase-3/7 activity (%, 100 μM), %": "−0.5"}
{"compound": "CNCc1cn(S(=O)(=O)c2cncc(F)c2)c(-c2cccnc2F)c1F [Example 5, hydrochloride]", "test_system": "Caspase-3/7 activity in HepG2 cells", "Caspase-3/7 activity (%, 100 μM), %": 0.3}
{"compound": "CNCc1cn(S(=O)(=O)c2ccc(OC)cn2)c(-c2cccnc2F)c1F [Example 10, hydrochloride]", "test_system": "Caspase-3/7 activity in HepG2 cells", "Caspase-3/7 activity (%, 100 μM), %": 0.9}
{"compound": "CNCc1cn(S(=O)(=O)c2cc(OC)ccn2)c(-c2cccnc2F)c1F [Example 4, hydrochloride]", "test_system": "Caspase-3/7 activity in HepG2 cells", "Caspase-3/7 activity (%, 100 μM), %": "−0.6"}
{"compound": "CNCc1cn(S(=O)(=O)c2cc(C)ccn2)c(-c2cccnc2F)c1F [Example 2, hydrochloride]", "test_system": "Caspase-3/7 activity in HepG2 cells", "Caspase-3/7 activity (%, 100 μM), %": "−1.1"}

// data source = patent US8592597B2
